Origin of values: ChEMBL document CHEMBL1157651

Measured inhibition by item
target: Sodium/glucose cotransporter 2 (Homo sapiens); experiment: Inhibition of alpha-D-[U-14C]glucopyranoside uptake at human SGLT2 expressed in african green monkey COS1 cells at 50 uM after 30 mins by liquid scintillation counting; format: cell-based; conditions: COS-1
Record the value in %, omitting the unit from your answer.

C/C=C1/CN2[C@@H]3C[C@@]45c6ccccc6N[C@]4(O3)[C@@H]2C[C@@H]1[C@@]5(COC(=O)c1ccc(OC)c(OC)c1)C(=O)OC ... 85.9
C/C=C1/C[N+]2(C)[C@@H]3C[C@@]45c6cc(OC)ccc6N(C)[C@]4(O3)[C@@H]2C[C@@H]1[C@@]5(COC(=O)c1cc(OC)c(OC)c(OC)c1)C(=O)OC (stereo partly specified) ... -6.1
C/C=C1/CN2[C@@H]3C[C@@]45c6cc(OC)c(OC)cc6N[C@]4(O3)[C@@H]2C[C@@H]1[C@H]5C(=O)OC ... 30

So what does the record say about inhibition for `C/C=C1/CN2[C@@H]3C[C@@]45c6cc(OC)ccc6N(C)[C@]4(O3)[C@@H]2C[C@@H]1[C@@]5(COC(=O)c1cc(OC)c(OC)c(OC)c1)C(=O)OC` ?
101

Same for `C/C=C1\CN2[C@@H]3C[C@@]45c6ccccc6N[C@]4(O3)[C@@H]2C[C@@H]1[C@@]5(COC(=O)c1cc(OC)c(OC)c(OC)c1)C(=O)OC`
87.3

Quick one: C/C=C1\CN2[C@H]3C[C@@]45c6ccccc6N(C)[C@@H]4[C@@H]2C[C@@H]1[C@@]3(C(=O)OC)C5O (stereo partly specified)
30.6
